Measured target: ROCK1 (Homo sapiens (Human))
Sequence (Q13464 whole entry, species assumed): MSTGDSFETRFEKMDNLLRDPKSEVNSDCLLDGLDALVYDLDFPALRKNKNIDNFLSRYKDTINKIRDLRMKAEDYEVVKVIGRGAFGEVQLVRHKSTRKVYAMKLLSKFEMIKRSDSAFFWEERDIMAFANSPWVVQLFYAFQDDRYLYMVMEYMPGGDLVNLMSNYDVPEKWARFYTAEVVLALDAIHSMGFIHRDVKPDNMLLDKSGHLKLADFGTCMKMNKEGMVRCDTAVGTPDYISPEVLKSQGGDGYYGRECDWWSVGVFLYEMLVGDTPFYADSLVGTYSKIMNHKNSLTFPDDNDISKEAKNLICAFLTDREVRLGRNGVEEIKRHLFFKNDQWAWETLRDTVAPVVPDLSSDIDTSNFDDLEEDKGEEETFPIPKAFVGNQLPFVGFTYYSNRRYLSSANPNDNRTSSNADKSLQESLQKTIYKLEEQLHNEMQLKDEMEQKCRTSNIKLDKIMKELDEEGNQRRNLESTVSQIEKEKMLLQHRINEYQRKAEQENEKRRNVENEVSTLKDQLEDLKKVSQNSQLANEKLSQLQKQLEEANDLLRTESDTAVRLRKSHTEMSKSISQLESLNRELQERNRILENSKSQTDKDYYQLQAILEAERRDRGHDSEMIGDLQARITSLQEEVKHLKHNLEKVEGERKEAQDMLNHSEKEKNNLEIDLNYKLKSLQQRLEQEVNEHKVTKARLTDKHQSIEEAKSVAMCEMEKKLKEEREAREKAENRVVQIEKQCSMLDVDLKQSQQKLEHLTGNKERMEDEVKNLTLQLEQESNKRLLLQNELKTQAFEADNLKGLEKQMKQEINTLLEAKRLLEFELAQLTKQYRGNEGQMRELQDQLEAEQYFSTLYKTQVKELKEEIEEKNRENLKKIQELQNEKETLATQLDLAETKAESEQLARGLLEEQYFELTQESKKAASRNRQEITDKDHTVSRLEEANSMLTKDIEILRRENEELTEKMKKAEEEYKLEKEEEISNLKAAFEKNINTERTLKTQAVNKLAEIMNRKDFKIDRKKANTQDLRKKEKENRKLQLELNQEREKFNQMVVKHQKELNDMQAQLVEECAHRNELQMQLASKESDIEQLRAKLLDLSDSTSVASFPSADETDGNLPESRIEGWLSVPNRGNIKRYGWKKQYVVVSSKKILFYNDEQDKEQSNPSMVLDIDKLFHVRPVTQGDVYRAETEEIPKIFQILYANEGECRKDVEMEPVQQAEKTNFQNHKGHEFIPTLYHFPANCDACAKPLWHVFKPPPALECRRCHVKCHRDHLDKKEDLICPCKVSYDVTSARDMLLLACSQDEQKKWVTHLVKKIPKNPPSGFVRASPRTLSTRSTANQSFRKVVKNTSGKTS
Assay protocol: ROCK assay (LABCHIP peptide phosphorylation), ROCK1
Type: biochemical
Cond: 5 μM ATP, 1.5 μM peptide substrate; read-out: ROCK1 IC50
Parameter IC50: see the listing below.
Assay endpoint: IC50

{"Molecule": "COc1ccc2c(c1)N(C(=O)Cc1ccc(-c3n[nH]c(=O)c4ccccc34)cc1)CC2", "Assay endpoint": "IC50", "Experimental value": "0.1 to 100 nM"}
{"Molecule": "Cc1cccc(N2CCC(C(=O)Nc3ccc(-c4n[nH]c(=O)c5ccccc45)cc3)C2=O)c1 (stereo not shown)", "Assay endpoint": "IC50", "Experimental value": "101 to 1000 nM"}
{"Molecule": "O=C(Nc1ccc(-c2n[nH]c(=O)c3ccccc23)cc1)c1ccc(-n2ccnc2)cc1", "Assay endpoint": "IC50", "Experimental value": "0.1 to 100 nM"}
{"Molecule": "O=C(Nc1ccc(-c2n[nH]c(=O)c3ccccc23)cc1)c1cnc2ccccn12", "Assay endpoint": "IC50", "Experimental value": "0.1 to 100 nM"}
{"Molecule": "COc1ccc2cc(C(=O)Nc3ccc(-c4n[nH]c(=O)c5ccccc45)cc3)n(C)c2c1", "Assay endpoint": "IC50", "Experimental value": "0.1 to 100 nM"}
{"Molecule": "COc1ccc2c(c1)N(C(=O)Nc1ccc(-c3c[nH]c(=O)c4cc(OC)c(OC)cc34)cc1)CC2", "Assay endpoint": "IC50", "Experimental value": "1000 to 50000 nM"}
{"Molecule": "Cn1cc(C(=O)Nc2ccc(-c3n[nH]c(=O)c4ccccc34)cc2)c2ccccc21", "Assay endpoint": "IC50", "Experimental value": "0.1 to 100 nM"}
{"Molecule": "CN1CCN(C(=O)c2ccc3c(c2)N(C(=O)Cc2ccc(-c4n[nH]c(=O)c5ccccc45)cc2)CC3)CC1", "Assay endpoint": "IC50", "Experimental value": "101 to 1000 nM"}
{"Molecule": "O=C(Oc1ccc(-c2n[nH]c(=O)c3ccccc23)cc1)N1CCC(c2ccccc2)C1 (stereo not shown)", "Assay endpoint": "IC50", "Experimental value": "1000 to 50000 nM"}
{"Molecule": "O=c1[nH]nc(-c2ccc(Nc3nc4ccccc4s3)cc2)c2ccccc12", "Assay endpoint": "IC50", "Experimental value": "101 to 1000 nM"}
{"Molecule": "COc1cccc2[nH]cc(C(=O)Nc3ccc(-c4n[nH]c(=O)c5ccccc45)cc3)c12", "Assay endpoint": "IC50", "Experimental value": "0.1 to 100 nM"}
{"Molecule": "O=C(Nc1ccc(-c2n[nH]c(=O)c3ccccc23)cc1)c1cnn(-c2ccc(Cl)cc2)c1", "Assay endpoint": "IC50", "Experimental value": "101 to 1000 nM"}
{"Molecule": "O=C(Cc1ccc(-c2n[nH]c(=O)c3ccccc23)cc1)N1CCc2ccc(OCc3cccnc3)cc21", "Assay endpoint": "IC50", "Experimental value": "0.1 to 100 nM"}
{"Molecule": "CC(C)(O)COc1ccn2ncc(C(=O)Nc3ccc(-c4n[nH]c(=O)c5ccccc45)cc3)c2c1", "Assay endpoint": "IC50", "Experimental value": "101 to 1000 nM"}
{"Molecule": "CN(C)CCOc1ccc2c(C(=O)Nc3ccc(-c4n[nH]c(=O)c5ccccc45)cc3)cnn2c1", "Assay endpoint": "IC50", "Experimental value": "0.1 to 100 nM"}
{"Molecule": "O=C(Oc1ccc(-c2n[nH]c(=O)c3ccccc23)cc1)N1Cc2ccc(F)cc2C1", "Assay endpoint": "IC50", "Experimental value": "1000 to 50000 nM"}
{"Molecule": "O=C(Nc1ccc(-c2n[nH]c(=O)c3ccccc23)cc1)c1cn2ccncc2n1", "Assay endpoint": "IC50", "Experimental value": "101 to 1000 nM"}
{"Molecule": "COc1ccc2c(-c3ccc(NC(=O)c4nn(CC(C)(C)O)c5ccccc45)cc3)n[nH]c(=O)c2c1", "Assay endpoint": "IC50", "Experimental value": "101 to 1000 nM"}
{"Molecule": "O=C(Nc1ccc(-c2n[nH]c(=O)c3ccccc23)cc1)N1CC2(CCNCC2)c2ccccc21", "Assay endpoint": "IC50", "Experimental value": "101 to 1000 nM"}
{"Molecule": "CCOc1ccc2c(c1)cc(C(=O)Nc1ccc(-c3n[nH]c(=O)c4ccccc34)cc1)n2C", "Assay endpoint": "IC50", "Experimental value": "0.1 to 100 nM"}
{"Molecule": "O=C(Cc1ccc(-c2c[nH]c(=O)c3ccccc23)c(F)c1)N1CCc2ccccc21", "Assay endpoint": "IC50", "Experimental value": "0.1 to 100 nM"}
{"Molecule": "CN1CCC(Oc2ccc3c(c2)N(C(=O)Cc2ccc(-c4n[nH]c(=O)c5ccccc45)cc2)CC3)CC1", "Assay endpoint": "IC50", "Experimental value": "101 to 1000 nM"}
{"Molecule": "Cn1nc(C(=O)Nc2ccc(-c3n[nH]c(=O)c4ccccc34)cc2)cc1C12CC3CC(CC(C3)C1)C2", "Assay endpoint": "IC50", "Experimental value": "0.1 to 100 nM"}
{"Molecule": "Cc1nc(C(=O)Nc2ccc(-c3n[nH]c(=O)c4ccccc34)cc2)c[nH]1", "Assay endpoint": "IC50", "Experimental value": "101 to 1000 nM"}
{"Molecule": "O=C(Cc1ccc(-c2n[nH]c(=O)c3ccccc23)c(F)c1)N1CCc2ccccc21", "Assay endpoint": "IC50", "Experimental value": "0.1 to 100 nM"}
{"Molecule": "O=C(Nc1ccc(-c2n[nH]c(=O)c3ccccc23)cc1)c1cnn2cc(OCCN3CCCC3)ccc12", "Assay endpoint": "IC50", "Experimental value": "0.1 to 100 nM"}
{"Molecule": "COc1ccc2c(c1)CN(C(=O)Oc1ccc(-c3n[nH]c(=O)c4ccccc34)cc1)C2", "Assay endpoint": "IC50", "Experimental value": "1000 to 50000 nM"}
{"Molecule": "COc1ccccc1N1CCC(C(=O)Nc2ccc(-c3n[nH]c(=O)c4ccccc34)cc2)C1=O (stereo not shown)", "Assay endpoint": "IC50", "Experimental value": "1000 to 50000 nM"}
{"Molecule": "O=C(Nc1ccc(-c2n[nH]c(=O)c3ccccc23)cc1)c1nn(CCO)c2ccccc12", "Assay endpoint": "IC50", "Experimental value": "0.1 to 100 nM"}
{"Molecule": "O=C(O)CCn1nc(C(=O)Nc2ccc(-c3n[nH]c(=O)c4ccccc34)cc2)c2ccccc21", "Assay endpoint": "IC50", "Experimental value": "101 to 1000 nM"}
{"Molecule": "O=C(Nc1ccc(-c2n[nH]c(=O)c3ccccc23)c(CO)c1)c1cnn2ccccc12", "Assay endpoint": "IC50", "Experimental value": "1000 to 50000 nM"}
